Provenance of the data: patent US20210130436A1

# Assay Target: PD-1 (PDCD1) (Homo sapiens (Human)) (UniProt Q15116)
# Sequence (Q15116 21-288): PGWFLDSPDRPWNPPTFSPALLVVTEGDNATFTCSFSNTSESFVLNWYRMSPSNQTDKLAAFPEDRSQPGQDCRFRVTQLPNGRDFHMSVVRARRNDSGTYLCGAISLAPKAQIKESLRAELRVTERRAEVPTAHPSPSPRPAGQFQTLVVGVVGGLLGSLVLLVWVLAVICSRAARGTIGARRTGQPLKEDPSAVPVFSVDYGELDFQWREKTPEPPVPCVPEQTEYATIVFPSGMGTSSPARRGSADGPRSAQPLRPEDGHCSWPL
# Test Protocol: cell-based or functional assay

Binder	Display Unit	IFN gamma levels pg/mL (MLR)
PD-L2 S67L/I86T IgV-Fc (Fc fusion, not shown: a dimerising Fc or GST) LFTVTVPKELYIIEHGSNVTLECNFDTGSHVNLGAITASLQKVENDTSPHRERATLLEEQLPLGKALFHIPQVQVRDEGQYQCIITYGVAWDYKYLTLKVKA	pg/mL	1020
PD-L2 H15Q/T47A/S67L/Q82R/V89D IgV-Fc (Fc fusion, not shown: a dimerising Fc or GST) LFTVTVPKELYIIEQGSNVTLECNFDTGSHVNLGAITASLQKVENDASPHRERATLLEEQLPLGKALFHIPQVQVRDEGQYRCIIIYGDAWDYKYLTLKVKA	pg/mL	1200
PD-L2 V89D IgV-Fc (Fc fusion, not shown: a dimerising Fc or GST) LFTVTVPKELYIIEHGSNVTLECNFDTGSHVNLGAITASLQKVENDTSPHRERATLLEEQLPLGKASFHIPQVQVRDEGQYQCIIIYGDAWDYKYLTLKVKA	pg/mL	1170
PD-L2 H15Q/V31M/S67L/Q82R/V89D IgV-Fc (Fc fusion, not shown: a dimerising Fc or GST) LFTVTVPKELYIIEQGSNVTLECNFDTGSHMNLGAITASLQKVENDTSPHRERATLLEEQLPLGKALFHIPQVQVRDEGQYRCIIIYGDAWDYKYLTLKVKA	pg/mL	1210
PD-L2 F2L/H15Q/D46E/T47A/Q72H/R76G/Q82R/V89D IgV-Fc (Fc fusion, not shown: a dimerising Fc or GST) LLTVTVPKELYIIEQGSNVTLECNFDTGSHVNLGAITASLQKVENEASPHRERATLLEEQLPLGKASFHIPHVQVGDEGQYRCIIIYGDAWDYKYLTLKVKA	pg/mL	1170
PD-L2 I13V/H15Q/R76G/D77N/Q82R/V89D IgV-Fc (Fc fusion, not shown: a dimerising Fc or GST) LFTVTVPKELYIVEQGSNVTLECNFDTGSHVNLGAITASLQKVENDTSPHRERATLLEEQLPLGKASFHIPQVQVGNEGQYRCIIIYGDAWDYKYLTLKVKA	pg/mL	1190
PD-L2 I13V/H15Q/T47A/R76G/V89D IgV-Fc (Fc fusion, not shown: a dimerising Fc or GST) LFTVTVPKELYIVEQGSNVTLECNFDTGSHVNLGAITASLQKVENDASPHRERATLLEEQLPLGKASFHIPQVQVGDEGQYQCIIIYGDAWDYKYLTLKVKA	pg/mL	1250
PD-L2 I13V/H15Q/T47A/S67L/Q72H/R76G/Q82R/V89D IgV-Fc (Fc fusion, not shown: a dimerising Fc or GST) SEQLFTVTVPKELYIVEQGSNVTLECNFDTGSHVNLGAITASLQKVENDASPHRERATLLEEQLPLGKALFHIPHVQVGDEGQYRCIIIYGDAWDYKYLTLKVKA	pg/mL	1560
PD-L2 I13V/H15Q/Q72H/R76G/I86T IgV-Fc (Fc fusion, not shown: a dimerising Fc or GST) LFTVTVPKELYIVEQGSNVTLECNFDTGSHVNLGAITASLQKVENDTSPHRERATLLEEQLPLGKASFHIPHVQVGDEGQYQCIITYGVAWDYKYLTLKVKA	pg/mL	1220
